B1: library; a variant is named by its letters at N, in order (parent)
chain: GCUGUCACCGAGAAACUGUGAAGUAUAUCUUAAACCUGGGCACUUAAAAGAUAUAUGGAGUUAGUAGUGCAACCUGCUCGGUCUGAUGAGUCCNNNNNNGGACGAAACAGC

Variants of: B1
Assay: FACS-Seq fitted mean relative fluorescence mCherry/BFP without ligand (log10 relative fluorescence); HEK293T; ligand: cyclic di-GMP (c-di-GMP-II aptamer); higher = higher reporter protein expression
Conditions: ligand present: no
Classification field: MET = FACS-Seq fitted mean (log10) at or over -0.3; NOT MET = FACS-Seq fitted mean (log10) under -0.3.

residueCodes | cat
GCUGUCACCGAGAAACUGUGAAGUAUAUCUUAAACCUGGGCACUUAAAAGAUAUAUGGAGUUAGUAGUGCAACCUGCUCGGUCUGAUGAGUCCCAGUUUGGACGAAACAGC [CAGUUU] | NOT MET

# input Reported FACS-Seq fitted mean (log10) at or above -0.3? GCUGUCACCGAGAAACUGUGAAGUAUAUCUUAAACCUGGGCACUUAAAAGAUAUAUGGAGUUAGUAGUGCAACCUGCUCGGUCUGAUGAGUCCAACAUGGGACGAAACAGC [AACAUG]
# output MET

# input Next entry: GCUGUCACCGAGAAACUGUGAAGUAUAUCUUAAACCUGGGCACUUAAAAGAUAUAUGGAGUUAGUAGUGCAACCUGCUCGGUCUGAUGAGUCCGCUCUUGGACGAAACAGC [GCUCUU]
# output MET

# input Next entry: GCUGUCACCGAGAAACUGUGAAGUAUAUCUUAAACCUGGGCACUUAAAAGAUAUAUGGAGUUAGUAGUGCAACCUGCUCGGUCUGAUGAGUCCAGCGAAGGACGAAACAGC [AGCGAA]
# output MET

# input Next entry: GCUGUCACCGAGAAACUGUGAAGUAUAUCUUAAACCUGGGCACUUAAAAGAUAUAUGGAGUUAGUAGUGCAACCUGCUCGGUCUGAUGAGUCCAGUAGAGGACGAAACAGC [AGUAGA]
# output NOT MET

Data origin: the supplement of paper PMC6757056
